Please provide measured Binding Affinity to Mouse MHC Class I (% increase of D^b or K^b on RMA-S cells) for the entries that follow.
molecular target: mouse B6 class I antigens (D^b or K^b molecules on the surface of RMA-S cells) (mouse, UniProt P01887 21-119); experiment: RMA-S cells incubated with peptide (25 ug/ml), stained with FITC anti-D^b or anti-K^b, flow cytometry
Sequence (P01887 21-119): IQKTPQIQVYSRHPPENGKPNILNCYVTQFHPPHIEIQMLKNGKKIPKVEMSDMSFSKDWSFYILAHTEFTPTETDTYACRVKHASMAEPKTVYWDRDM
Numbers only, in %.

Some solved cases for reference:
- binder: "YSSDNLYQM [WT1 peptide p221-229 (YSSDNLYQM)]"
  meas_value: 0.8
- binder: "CMTWNQMNL [WT1 peptide p235-243 (CMTWNQMNL)]"
  meas_value: 33.6

### Prompt Record request: Binding Affinity to Mouse MHC Class I (% increase of D^b or K^b on RMA-S cells) value, item SCLESQPAI (also called human p136-144) [WT1 peptide p136-144 human (SCLESQPAI)]
### Response 52
